remaining at 4 h, 50 µM values for the compounds below.
experimental_protocol: Metabolic stability in mouse liver microsomes at 50 uM after 4 hrs in presence of NADPH by HPLC analysis
Type: ADME, Microsome
assay_conditions: read-out: Stability
State the answer as a number, implicitly in %.

// known answers, use as guide
[
  {
    "item_smiles": "O=c1ccc2ccccc2o1",
    "numeric_readout": 14
  },
  {
    "item_smiles": "O=C(Cc1cccc(OC(F)(F)F)c1)Nc1ccc(CCCCc2nnc(NC(=O)Cc3ccccn3)[se]2)nn1",
    "numeric_readout": 50
  },
  {
    "item_smiles": "O=C(Cc1cccc(OC(F)(F)F)c1)Nc1ccc(CCCCc2nnc(NC(=O)Cc3ccccn3)s2)nn1",
    "numeric_readout": 46
  }
]

Form field: reported remaining at 4 h, 50 µM of COc1ccc2c(c1)c(CC(=O)Nc1nnc(CCCCc3ccc(NC(=O)Cc4cccc(OC(F)(F)F)c4)nn3)[se]1)cn2C
30
